Data provenance: paper PMC9095466

- System: SARS-CoV-2 lineage B strain (VIDO)
- test.summary: microbe, parasite or virus in culture
- Assay type: cell-based
- setup.conditions: Severe acute respiratory syndrome coronavirus 2, 72 h; Calu-3 cells, Fig. 3d, n = 4; read-out: EC50, dsRNA staining, Variant B (VIDO-01)
pEC50: −log10 of the molar value.
measured.property: pEC50

compound	value.measured
CS(=O)(=O)NC(CCC(N)=O)C(=O)NC(Cc1ccccc1)C(=O)NC(CCCNC(=N)N)C(=O)c1nc2ccccc2s1 (stereo not shown)	7.84

---

- Test system: SARS-CoV-2 P.1 (Gamma)
- test.summary: microbe, parasite or virus in culture
- Type: cell-based
- setup.conditions: Severe acute respiratory syndrome coronavirus 2; Calu-3 cells, Fig. 3c, n = 4; read-out: EC50, N staining, Variant P.1 (Gamma)

molecule	EC50, nM
CS(=O)(=O)NC(CCC(N)=O)C(=O)NC(Cc1ccccc1)C(=O)NC(CCCNC(=N)N)C(=O)c1nc2ccccc2s1 (stereo not shown)	6.5
